B1: Histidine--tRNA ligase, cytoplasmic, residues 8 to 45; numbered along this chain, P12081 (parent)
chain: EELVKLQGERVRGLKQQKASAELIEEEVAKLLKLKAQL

variants of: B1; assay: abundance fitness (aPCA) (normalised: wild type 0, dead -1); higher = more abundant; growth selection in yeast, the domain comes from the species named; conditions: Homo sapiens
Threshold rule: abundance fitness greater than or equal to -0.09 is fulfilled; below that, not fulfilled.

>>> df
    residue_change    class_label
 0            K33Y  not fulfilled
 1            E25S      fulfilled
 2            K15W  not fulfilled
 3            Q16R  not fulfilled
 4            E25W  not fulfilled
 5             Q7L  not fulfilled
 6             Q7V  not fulfilled
 7            E26G  not fulfilled
 8            L23I      fulfilled
 9            L32D      fulfilled
10            K15F  not fulfilled
11            L23K      fulfilled
12            K35M      fulfilled
13             E9K  not fulfilled
14            A29R  not fulfilled
15             Q7R  not fulfilled
16            I24W  not fulfilled
17            A21P      fulfilled
18            A19E  not fulfilled
19            G13S      fulfilled
20            E22Q      fulfilled
21            Q37F  not fulfilled
22            L34V      fulfilled
23            V11P      fulfilled
24            L14I  not fulfilled
25            Q37A      fulfilled
26             E9P  not fulfilled
27            L34E      fulfilled
28             L6S  not fulfilled
29            E25A      fulfilled
30            L34R  not fulfilled
31             E2M  not fulfilled
32            Q16D      fulfilled
33            L34T      fulfilled
34             L3F  not fulfilled
35            Q16G  not fulfilled
36            E22T      fulfilled
37            A29D      fulfilled
38            L32G      fulfilled
39             G8L      fulfilled
40             Q7E  not fulfilled
41            G13Y  not fulfilled
42            L32C      fulfilled
43             E2P  not fulfilled
44            L32S      fulfilled
